measuredOn: T1, human β-klotho (human, UniProt Q86Z14 1-1044)
T1 sequence (looked up): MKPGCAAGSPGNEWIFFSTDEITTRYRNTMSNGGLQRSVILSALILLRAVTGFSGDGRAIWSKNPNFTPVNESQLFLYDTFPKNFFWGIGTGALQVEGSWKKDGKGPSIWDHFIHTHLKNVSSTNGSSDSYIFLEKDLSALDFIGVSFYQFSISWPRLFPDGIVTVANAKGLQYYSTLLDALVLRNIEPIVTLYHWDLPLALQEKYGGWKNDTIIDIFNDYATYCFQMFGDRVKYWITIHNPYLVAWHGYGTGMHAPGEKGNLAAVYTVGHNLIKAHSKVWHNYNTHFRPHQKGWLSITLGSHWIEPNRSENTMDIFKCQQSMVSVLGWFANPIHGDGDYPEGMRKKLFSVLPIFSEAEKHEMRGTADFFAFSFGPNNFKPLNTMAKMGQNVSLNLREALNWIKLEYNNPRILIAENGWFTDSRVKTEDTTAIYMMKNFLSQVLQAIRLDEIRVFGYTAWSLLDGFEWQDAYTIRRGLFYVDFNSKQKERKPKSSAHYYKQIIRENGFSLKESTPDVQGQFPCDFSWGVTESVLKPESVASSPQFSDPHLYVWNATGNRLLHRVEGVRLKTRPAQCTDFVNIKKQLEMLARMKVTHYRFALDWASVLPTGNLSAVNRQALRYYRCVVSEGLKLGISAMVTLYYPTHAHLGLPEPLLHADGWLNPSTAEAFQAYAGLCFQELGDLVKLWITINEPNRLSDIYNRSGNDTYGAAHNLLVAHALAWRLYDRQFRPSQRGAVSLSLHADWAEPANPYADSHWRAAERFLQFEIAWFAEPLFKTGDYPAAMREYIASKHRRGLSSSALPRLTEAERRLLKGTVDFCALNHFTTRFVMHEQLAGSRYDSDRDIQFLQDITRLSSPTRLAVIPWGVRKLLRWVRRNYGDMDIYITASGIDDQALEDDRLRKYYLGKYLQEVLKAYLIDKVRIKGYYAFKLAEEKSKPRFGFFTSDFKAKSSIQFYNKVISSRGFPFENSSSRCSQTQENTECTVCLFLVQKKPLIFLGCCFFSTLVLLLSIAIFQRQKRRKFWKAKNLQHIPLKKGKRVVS
experimentDescription: cell-based or functional assay
Hi there, I'd appreciate the recorded Fold-WT (EC50 of variant / EC50 of FGF21-WT) for every entry that follows.
One number for each entry, in fold.

hFGF21(33-209)-V62 (ligand) DSSPLLQFGGQVRQRYLYTDDACQTEAHLEIREDGTVGGAAHQSPESLLQLKALKPGVIQILGVKTSRFLCQRPDGALYGSLHFDPEACSFRELLLENGYNVYQSETHGLPLHLPCNKSPHRDPASQGPARFLPLPGLPPAPPEPPGILAPQPPDVGSSDPLAMVGPSQARSPSYAS; 6.8
hFGF21(33-209)-V14-R154C, L174P (ligand) DSSPLLQFGGQVRQRYLYTDDAQETEAHLEIREDGTVGGAAHQSPESLLELKALKPGVIQILGVKTSRFLCQKPDGALYGSLHFDPEACSFRELLLENGYNVYQSEAHGLPLHLPGNRSPHCDPAPQGPARFLPLPGLPPAPPEPPGILAPQPPDVGSSDPLAMVGPSQGRSPSYAS; 1

Proceed to the following item.
Lab note: hFGF21(33-209)-V11 (ligand) DSSPLLQFGGQVRQRYLYTDDDQQTEAHLEIREDGTVGGAAHQSPESLLELKALKPGVIQILGVKTSRFLCQKPDGALYGSLHFDPEACSFRELLLENGYNVYQSEAHGLPLHLPGNRSPHRDPAPQGPARFLPLPGLPPALPEPPGILAPQPPDVGSSDPLAMVGPSQGRSPSYAS gave Fold-WT (EC50 of variant / EC50 of FGF21-WT) of 18

Origin of the recorded values: patent US20120129766A1
